studyTarget: ATP-dependent translocase ABCB1 (Homo sapiens)
Sequence (P08183 whole entry): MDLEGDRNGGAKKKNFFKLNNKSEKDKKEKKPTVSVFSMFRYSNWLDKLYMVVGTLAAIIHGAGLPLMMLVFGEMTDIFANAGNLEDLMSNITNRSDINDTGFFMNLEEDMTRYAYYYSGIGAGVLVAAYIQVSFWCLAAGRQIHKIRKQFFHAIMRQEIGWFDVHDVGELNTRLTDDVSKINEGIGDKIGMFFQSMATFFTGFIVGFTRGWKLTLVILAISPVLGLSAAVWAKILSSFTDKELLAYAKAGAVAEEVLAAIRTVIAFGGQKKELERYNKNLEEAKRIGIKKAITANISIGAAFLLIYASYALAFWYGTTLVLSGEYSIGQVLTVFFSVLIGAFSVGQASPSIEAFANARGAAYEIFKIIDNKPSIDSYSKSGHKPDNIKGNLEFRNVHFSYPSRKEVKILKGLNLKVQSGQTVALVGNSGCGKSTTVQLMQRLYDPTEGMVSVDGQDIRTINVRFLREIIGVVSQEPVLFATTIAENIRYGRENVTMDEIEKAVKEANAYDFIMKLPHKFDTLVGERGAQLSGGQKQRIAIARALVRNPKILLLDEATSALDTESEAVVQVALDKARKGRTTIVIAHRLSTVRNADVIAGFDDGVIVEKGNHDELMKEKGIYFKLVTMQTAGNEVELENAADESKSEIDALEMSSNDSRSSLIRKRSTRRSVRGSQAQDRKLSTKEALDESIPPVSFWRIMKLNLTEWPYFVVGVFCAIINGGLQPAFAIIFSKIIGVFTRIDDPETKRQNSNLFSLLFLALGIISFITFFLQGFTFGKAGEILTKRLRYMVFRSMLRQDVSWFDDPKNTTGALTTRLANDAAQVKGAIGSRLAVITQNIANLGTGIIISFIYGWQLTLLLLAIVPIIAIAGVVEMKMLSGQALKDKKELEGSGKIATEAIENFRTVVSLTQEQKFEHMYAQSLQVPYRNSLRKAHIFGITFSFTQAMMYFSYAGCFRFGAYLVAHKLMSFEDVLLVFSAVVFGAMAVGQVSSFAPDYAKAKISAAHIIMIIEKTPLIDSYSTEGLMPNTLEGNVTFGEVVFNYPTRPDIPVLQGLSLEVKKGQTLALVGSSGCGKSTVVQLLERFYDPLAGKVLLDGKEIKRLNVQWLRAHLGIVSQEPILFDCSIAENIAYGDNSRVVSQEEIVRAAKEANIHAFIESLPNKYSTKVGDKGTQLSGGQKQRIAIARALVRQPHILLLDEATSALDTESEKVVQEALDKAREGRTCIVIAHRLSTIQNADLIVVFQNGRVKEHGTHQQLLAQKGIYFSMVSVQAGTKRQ
assay: Inhibition of human P-gp transfected in HEK293 cells assessed as potentiation of paclitaxel-induced cytotoxicity by measuring fold reduction in paclitaxel IC50 at 10 uM pre-incubated for 1 hr before paclitaxel addition and measured after 72 hrs by MTT assay
Type: cell-based
settings: hek293, 72 h
parameter: fold change (FC)
// return a plain number; no unit text

The measured fold change (FC) associated with COc1cc(C(=O)N[C@H](c2nc(C(=O)N[C@@H]3CCCc4ccccc43)cs2)C(C)C)cc(OC)c1OC reads 2.9

The measured fold change (FC) associated with CC(C)[C@H](NC(=O)c1cccc(N)c1)c1nc(C(=O)Nc2ccccc2C(=O)c2ccccc2)cs1 reads 17.9

The measured fold change (FC) associated with COc1cc(C(=O)N[C@H](c2nc(C(=O)NC3CCCCC3)cs2)C(C)C)cc(OC)c1OC reads 0.6

The measured fold change (FC) associated with COc1cc(C(=O)N[C@H](c2nc(C(=O)Nc3ccccc3C(=O)c3ccccc3)cs2)C(C)C)cc(OC)c1OC reads 0.6

The measured fold change (FC) associated with COc1cc(C(=O)N[C@H](c2nc(C(=O)NC3CCC(F)(F)CC3)cs2)C(C)C)cc(OC)c1OC reads 0.6

The measured fold change (FC) associated with COc1cc(C(=O)NC(Cc2ccccc2)c2nc(C(=O)NC3CCC(F)(F)CC3)cs2)cc(OC)c1OC (stereo unspecified) reads 1.7
